Below, each of the molecules is paired with its reported Ki value.
testedTarget: rat histamine-3 receptor (Rattus norvegicus, UniProt Q9QYN8)
Construct: expressed in transfected cells; host or cells: C6 or HEK293 cells
Sequence (Q9QYN8 whole entry): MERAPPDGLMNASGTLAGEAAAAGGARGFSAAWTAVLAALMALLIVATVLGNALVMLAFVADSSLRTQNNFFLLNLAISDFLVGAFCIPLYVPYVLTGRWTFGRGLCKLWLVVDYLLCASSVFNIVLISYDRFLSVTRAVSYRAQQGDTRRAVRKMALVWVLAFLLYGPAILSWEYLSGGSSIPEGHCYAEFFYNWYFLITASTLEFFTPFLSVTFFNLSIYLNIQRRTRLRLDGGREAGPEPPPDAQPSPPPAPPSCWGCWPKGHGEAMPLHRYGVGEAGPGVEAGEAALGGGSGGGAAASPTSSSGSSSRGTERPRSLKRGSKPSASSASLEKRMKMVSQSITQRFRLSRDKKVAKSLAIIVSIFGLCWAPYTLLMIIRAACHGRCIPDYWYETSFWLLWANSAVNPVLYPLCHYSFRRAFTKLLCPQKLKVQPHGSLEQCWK
experiment: histamine-3 receptor competition binding with [H3]-N-α-methylhistamine
conditionParameters: compounds of formula (II)
Quick reminder: number only, in nM, skip the unit.

CN1C[C@H]2CCN(c3ccc(-c4ccc(-n5ncccc5=O)nc4)cc3)[C@H]2C1 | 3.5

With those in mind, consider the next molecule.
[Q] GET /values?readout=Ki&item= `CN1C[C@H]2CCN(c3ccc(-c4ccc(-n5ncccc5=O)cc4)cc3)[C@H]2C1`
[A] 8.2

====

testedTarget: rat histamine-3 receptor (Rattus norvegicus, UniProt Q9QYN8)
Construct: expressed in transfected cells; host or cells: C6 or HEK293 cells
experiment: histamine-3 receptor competition binding with [H3]-N-α-methylhistamine
conditionParameters: compounds of formula (I); mean of 4 separate determinations
assayMetric: Ki (nM)
Quick reminder: number only, in nM, skip the unit.

[Q] Find the measured Ki: item C[N@+]1([O-])C[C@H]2CCN(c3ccc(-c4ccc(-n5ncccc5=O)cc4)cc3)[C@H]2C1 (single isomer, unassigned) , target or system rat histamine-3 receptor (Rattus norvegicus, UniProt Q9QYN8).
[A] 2240
